# TARGET_ENTITY: Proto-oncogene tyrosine-protein kinase ROS (Homo sapiens)
# RUN_CONDITIONS: at 10 µM
# residual activity per entry
# unit: % | format: bare number

Entry O=C1Nc2ccc(Cl)cc2/C1=C/c1cc(Cl)c(O)c(Cl)c1 ; assay system Proto-oncogene tyrosine-protein kinase ROS (Homo sapiens); residual activity recorded at 90

Field residual activity (Proto-oncogene tyrosine-protein kinase ROS (Homo sapiens)), entry Cn1sc(=O)n(Cc2ccccc2)c1=O : 80

Record CC(C)(C)n1nc(Cc2cccc3ccccc23)c2c(N)ncnc21 / Proto-oncogene tyrosine-protein kinase ROS (Homo sapiens), residual activity recorded as 94

O=C(NC(NC(=S)Nc1ccc(F)c([N+](=O)[O-])c1)C(Cl)(Cl)Cl)C(c1ccccc1)c1ccccc1 (stereo unspecified) on Proto-oncogene tyrosine-protein kinase ROS (Homo sapiens) gives residual activity = 94

The value of residual activity recorded for COc1cc2ncnc(Nc3cccc(Cl)c3)c2cc1OC when tested on Proto-oncogene tyrosine-protein kinase ROS (Homo sapiens) reads 105

Proto-oncogene tyrosine-protein kinase ROS (Homo sapiens) residual activity of O=C(CCCc1ccc(-c2ccccc2F)cc1)Nc1ccc(O)cc1 is 100

Let me check: O=C1NC(=O)c2c1c1c3ccccc3[nH]c1n1cncc21 , system Proto-oncogene tyrosine-protein kinase ROS (Homo sapiens), measured residual activity is 88

Lab note: compound CCCCc1c(-c2ccc(O)cc2)[nH]c2nccnc12 tested on Proto-oncogene tyrosine-protein kinase ROS (Homo sapiens); recorded residual activity was 82

Observed residual activity, Proto-oncogene tyrosine-protein kinase ROS (Homo sapiens), O=C(O)/C=C/c1cc(Br)c(Br)c(Br)c1Br : 97
